Let's look at some compounds and their measured Log-P.
test: Log-P (Table 1); assay type: physicochemical
Counter-ions that a name gives are not always drawn.
READOUT NAME: Log-P

compound="CNCC1CC1(C(=O)OC)c1ccc(OC)c(OC)c1 (racemic) [HD-289, hydrochloride]" readout_name=Log-P observed_value=1.31
compound=CNC[C@H]1C[C@@]1(C(=O)OC)c1ccc(Br)c(Br)c1 readout_name=Log-P observed_value=3.17
compound=CNC[C@@H]1C[C@]1(C(=O)OC)c1ccc(-c2ccccc2)cc1 readout_name=Log-P observed_value=3.54
compound=CNC[C@H]1C[C@@]1(C(=O)OC)c1ccc2ccccc2c1 readout_name=Log-P observed_value=2.82
compound=CNC[C@H]1C[C@@]1(C(=O)OC)c1ccc(Br)cc1 readout_name=Log-P observed_value=2.51

* * *

Biological target: 5-HT transport (SERT) sites (Rattus norvegicus, UniProt P31652)
Construct: Tissue is obtained from frozen rat brains as described above; from tissue; host or cells: rat frontal cortex membranes (frozen rat brains)
Sequence (P31652 whole entry): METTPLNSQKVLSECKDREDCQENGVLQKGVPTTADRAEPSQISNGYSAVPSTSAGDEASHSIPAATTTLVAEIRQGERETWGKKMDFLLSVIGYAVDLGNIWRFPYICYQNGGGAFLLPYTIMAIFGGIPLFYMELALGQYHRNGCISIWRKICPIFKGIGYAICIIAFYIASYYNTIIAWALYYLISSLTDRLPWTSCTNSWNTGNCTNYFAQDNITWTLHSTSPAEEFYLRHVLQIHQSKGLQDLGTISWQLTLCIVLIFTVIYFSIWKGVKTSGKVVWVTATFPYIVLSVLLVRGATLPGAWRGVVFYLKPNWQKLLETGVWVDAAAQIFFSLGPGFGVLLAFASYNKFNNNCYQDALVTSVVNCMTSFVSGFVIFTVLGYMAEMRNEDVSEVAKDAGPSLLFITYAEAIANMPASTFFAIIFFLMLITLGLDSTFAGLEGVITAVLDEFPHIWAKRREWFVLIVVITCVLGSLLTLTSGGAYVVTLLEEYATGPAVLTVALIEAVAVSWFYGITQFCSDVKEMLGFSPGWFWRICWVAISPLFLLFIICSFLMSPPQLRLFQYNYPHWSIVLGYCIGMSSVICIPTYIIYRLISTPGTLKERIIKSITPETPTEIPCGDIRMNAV
Assay: SERT binding, displacement of [3H]citalopram in rat frontal cortex membranes
Procedure: Affinities of analogs at 5-HT transport (SERT) sites are determined by displacement of [^3H] citalopram binding in membranes from rat frontal cortex. […] Non-specific binding is determined in the presence of 10 μM fluoxetine. Binding of analogs at norepinephrine transporters (NET) was determined by displacement of [^3H]nisoxetine binding. […] Non-specific binding is determined in the presence of 1 μM desipramine. […]
Where a name gives a salt, the structure may show the parent alone.
READOUT NAME: Ki (nM)

molecule="CNC[C@H]1C[C@@]1(C(=O)OC)c1ccc2ccccc2c1 [HD-330]" system_under_test="5-HT transport (SERT) sites (Rattus norvegicus, UniProt P31652)" observed_value=27
molecule="CCN(CC)C(=O)C1(c2ccccc2)CC1CN (stereo not shown) [HD-283, Milnacipran, reference compound]" system_under_test="5-HT transport (SERT) sites (Rattus norvegicus, UniProt P31652)" observed_value=35.1
molecule="CNC[C@@H]1C[C@]1(C(=O)OC)c1ccc2ccccc2c1 [HD-331]" system_under_test="5-HT transport (SERT) sites (Rattus norvegicus, UniProt P31652)" observed_value=15
molecule="CNCC1CC1(C(=O)OC)c1ccc2ccccc2c1 (racemic) [HD-287, hydrochloride]" system_under_test="5-HT transport (SERT) sites (Rattus norvegicus, UniProt P31652)" observed_value=6.58
